Entry source: paper PMC5458078

Tested on: MCF7 CARM1 KO cells
Test: Quantitative MS of ADMA-containing peptides in MCF7 CARM1 KO cells expressing CARM1 28-608 or CARM1 140-608, and in CARM1 KO
Assay type: cell-based, human
Settings: CARM1 140-608 vs WT, mean of 3 replicates, log2
Use true (1) when the recorded CARM1 140-608/WT is no lower than -1; use false (0) when it is lower.

{"columns": ["substance", "group label"],
 "data": [
  ["LEPPLTPrCPLDFAPQTLSFPYAR", "false (0)"],
  ["TNRPGISTTDrGFPrArYR", "true (1)"],
  ["NRPAIArGAAGGGGR", "true (1)"],
  ["VELPTCMYrLPNVHGR", "false (0)"],
  ["EELLrHQLLEK", "false (0)"],
  ["LPGTPPLFSPPPrHHLDPHR", "false (0)"],
  ["QLPNAGPGAPPALGFSrFPAGAR", "false (0)"],
  ["APPGGLHAPrLSLEGAAR", "false (0)"],
  ["SYGLGSEQrSQAPArYSLQSANASSLSSGQLK", "false (0)"],
  ["ErLALAAGPALrPDMSYAER", "false (0)"],
  ["WrYNKPLPPTPDLPQPHLPPISAPGSSR", "false (0)"],
  ["RPAQSVNrGGMTR", "true (1)"],
  ["SQAPArYSLQSANASSLSSGQLK", "false (0)"],
  ["SPYTTTrYGSPINTFTVRPGTR", "true (1)"],
  ["TATVTIrPNTSGSGGTTSNSQVITGPQIrPGMTVIrTPLQQSTLGK", "true (1)"],
  ["TATVTIrPNTSGSGGTTSNSQVITGPQIrPGMTVIRTPLQQSTLGK", "true (1)"],
  ["SPYTTTrYGSPINTFTVrPGTR", "false (0)"],
  ["IPYPAGTLPNPLLPHPLHENEVLrHQLFAAPYR", "true (1)"],
  ["QVHPFHVYPQPGMQrFR", "true (1)"],
  ["DFAFYNPrLQGK", "false (0)"],
  ["AGSQGGrGGGAQAAAR", "true (1)"],
  ["VLGIIPSSTGTSQQTFTSFQPrTATVTIrPNTSGSGGTTSNSQVITGPQIrPGMTVIrTPLQQSTLGK", "false (0)"]
]}

* * *

Tested on: MCF7 CARM1 KO cells
Experiment: Quantitative MS of ADMA-containing peptides in MCF7 CARM1 KO cells expressing CARM1 28-608 or CARM1 140-608, and in CARM1 KO
Type: cell-based, human
Conditions: ratio on log2 scale, mean of 3 replicates
property measured: CARM1 140-608/WT

{"columns": ["substance", "property measured", "number"],
 "data": [
  ["KPPNQSLPLQPFQLAFGHQVNrQVFrQGPPPPNPVAAFPPQK", "CARM1 140-608/WT", -2.162],
  ["STNPELPPrLGPVPSGLSQK", "CARM1 140-608/WT", -2.1],
  ["LGRPIGALArGAIGGR", "CARM1 140-608/WT", 0.09518],
  ["TYQASSAAFrYTAGTPYK", "CARM1 140-608/WT", -4.171],
  ["GGrGPFPLQVVSVGGPAR", "CARM1 140-608/WT", -0.1124],
  ["GGAPFQFGGQrRPLLSQLK", "CARM1 140-608/WT", 0.1701],
  ["DPFSQALSrCQLQQAAALNAQHK", "CARM1 140-608/WT", -1.585],
  ["FArVPLALHPVVGQPFLK", "CARM1 140-608/WT", -2.105],
  ["NDTKDDLGNLNVPDSSLPAENEATGPGFVPPPLAPIrGPLFPVDArGPFLR", "CARM1 140-608/WT", 0.1654],
  ["GQLFrLPSALNR", "CARM1 140-608/WT", -1.812],
  ["GrFPGAVPGGDrFPGPAGPGGPPPPFPGNLIK", "CARM1 140-608/WT", -1.24],
  ["CrQPAPPTSQPPrAQPFAQPPGPWPLSSPGPrLVFNR", "CARM1 140-608/WT", -1.684],
  ["LLFQNLWKPrLNVP", "CARM1 140-608/WT", -1.893],
  ["GrGFAGVCGFGGPYGETVATGPYrAFR", "CARM1 140-608/WT", -1.219],
  ["NPFLTGLSAPSPTNPFGAGEPGrPTLNQMR", "CARM1 140-608/WT", -2.593],
  ["CAGFLEPTWLAAPPrLArPPrFYEAGEELTGPGAVAAAR", "CARM1 140-608/WT", -2.314],
  ["SPLLNQPVPELSHASLIANQSPFrAPLNVTNTAGTSLPSVDLLQK", "CARM1 140-608/WT", -2.179],
  ["AQPFAQPPGPWPLSSPGPrLVFNR", "CARM1 140-608/WT", -2.181],
  ["CAGFLEPTWLAAPPrLARPPR", "CARM1 140-608/WT", -0.2739],
  ["TGALPGPGPLSNPrLGGLPGPGPMSNPR", "CARM1 140-608/WT", -0.9797],
  ["LHrSPLTFPAWVrPPEAAR", "CARM1 140-608/WT", -1.436],
  ["GPVTPGGLPPrGLLGDAPNDPR", "CARM1 140-608/WT", -1.495],
  ["GALSISAPLGDFrHTLHVGR", "CARM1 140-608/WT", -1.004],
  ["EGAEGVNGGEESVNLNDADEGFSSGASLSSQPIGTKPSSSSQrGSLR", "CARM1 140-608/WT", -0.2709],
  ["TRNPFLTGLSAPSPTNPFGAGEPGrPTLNQMR", "CARM1 140-608/WT", -1.179],
  ["AGGLLGTGSGLNLrMAGPQGLDLAPILR", "CARM1 140-608/WT", -0.05646],
  ["SIVPTMHYQDSLPrLPIPK", "CARM1 140-608/WT", -1.626],
  ["QIrFSQGQQLVTK", "CARM1 140-608/WT", -1.837],
  ["ICEGIrPQIMNGPLHPRPLVALLDGR", "CARM1 140-608/WT", -0.2372],
  ["QSHTLPFPPPPALPFYPASAYPrHFGPVPPSQGR", "CARM1 140-608/WT", -0.8989]
]}
